B1: PTPRD (parent)
chain: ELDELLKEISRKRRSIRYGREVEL

- Variants of: B1
- Test name: protein stability index of a GFP-peptide fusion (GPS, HEK-293T) (PSI 1-6); higher = more stable;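 further: lentivirally expressed fusions sorted by FACS into six bins by GFP to DsRed ratio, PSI derived from sequencing read proportions per bin multiplied by bin number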
- Particulars: c terminus: a fixed tail appended
Measured protein stability index of individual entries
Measure: protein stability index

INSERT INTO measurements (chain_sequence, result_value) VALUES
  ('ELDELLKEISRDRRSIRYGREVEL [K12D]', 2.39),
  ('ELDELLKEISRKRRSIYYGREVEL [R17Y]', 2.6),
  ('ELDELLKEISRKRRSIRYGRECEL [V22C]', 2.29),
  ('ELDELLKEGSRKRRSIRYGREVEL [I9G]', 3.57),
  ('DLDELLKEISRKRRSIRYGREVEL [E1D]', 2.3),
  ('ELDELLKEISRKRVSIRYGREVEL [R14V]', 2.42),
  ('ELDALLKEISRKRRSIRYGREVEL [E4A]', 3.26),
  ('ELDEVLKEISRKRRSIRYGREVEL [L5V]', 2.86),
  ('ELDELLKEISRKRRSIGYGREVEL [R17G]', 2.19),
  ('ELDELLKEISRKRRQIRYGREVEL [S15Q]', 3.4),
  ('ELDELLKRISRKRRSIRYGREVEL [E8R]', 2.54),
  ('ELDELLKEISRSRRSIRYGREVEL [K12S]', 2.63),
  ('ELDELLAEISRKRRSIRYGREVEL [K7A]', 2.83),
  ('ELDELRKEISRKRRSIRYGREVEL [L6R]', 3.76),
  ('ELDELLKEISRKRRSIRYYREVEL [G19Y]', 2.1),
  ('ELDELLKEIQRKRRSIRYGREVEL [S10Q]', 2.2),
  ('ERDELLKEISRKRRSIRYGREVEL [L2R]', 3.71),
  ('EFDELLKEISRKRRSIRYGREVEL [L2F]', 2.49),
  ('ELDELLFEISRKRRSIRYGREVEL [K7F]', 2),
  ('ELDELGKEISRKRRSIRYGREVEL [L6G]', 4.21),
  ('ELDELLKEISRKRRSIRYTREVEL [G19T]', 2.37),
  ('EGDELLKEISRKRRSIRYGREVEL [L2G]', 3.58),
  ('ELDELLKEISRKRRSIRYHREVEL [G19H]', 2.41),
  ('ELDELLKEISEKRRSIRYGREVEL [R11E]', 3.19),
  ('ELDELLKEISRKRRSIRYGREPEL [V22P]', 2.04),
  ('ELDELLKEISRKGRSIRYGREVEL [R13G]', 2.96),
  ('ELDELLKEISRKRRVIRYGREVEL [S15V]', 2.29),
  ('ELDELLKEISRKRRSIRYGGEVEL [R20G]', 2.23),
  ('ELDEQLKEISRKRRSIRYGREVEL [L5Q]', 4.14),
  ('ELDELLKEISRKRRSIRYGREVAL [E23A]', 2.31),
  ('ELDELLKEISRKRRSIRYGREVCL [E23C]', 1.96),
  ('ELDELLKEISRKRRSIRYGREVEI [L24I]', 2.42),
  ('ELDEALKEISRKRRSIRYGREVEL [L5A]', 3.07),
  ('ELDILLKEISRKRRSIRYGREVEL [E4I]', 1.73),
  ('ELDELLKEISRKRRSIRYGRSVEL [E21S]', 1.86),
  ('ELDELLKEISRKRRYIRYGREVEL [S15Y]', 2.65),
  ('ELDELLKEISRKRRSIRYGHEVEL [R20H]', 2.08),
  ('EVDELLKEISRKRRSIRYGREVEL [L2V]', 2.43),
  ('QLDELLKEISRKRRSIRYGREVEL [E1Q]', 2.41),
  ('ELDELLKEISRKRRSIRYGREVRL [E23R]', 2.17),
  ('ELDELLKEISRKRRSIRYGLEVEL [R20L]', 1.84),
  ('ELDELLKEISRKRRSIRYGREVEC [L24C]', 2.38),
  ('ELDELLKEISRKRRSIRYGRESEL [V22S]', 2.79),
  ('ELDELLKEISRKRRSQRYGREVEL [I16Q]', 3.12),
  ('ELDELLKEISRIRRSIRYGREVEL [K12I]', 1.66),
  ('ELWELLKEISRKRRSIRYGREVEL [D3W]', 1.75),
  ('ELDELLPEISRKRRSIRYGREVEL [K7P]', 3.12),
  ('ELDDLLKEISRKRRSIRYGREVEL [E4D]', 2.07),
  ('ELDYLLKEISRKRRSIRYGREVEL [E4Y]', 1.27),
  ('EHDELLKEISRKRRSIRYGREVEL [L2H]', 4.32),
  ('ELDELLKEISRKRRSIRYGREVFL [E23F]', 2.05),
  ('ELDELLKEISRKRRSIRYQREVEL [G19Q]', 2.33),
  ('ELDEKLKEISRKRRSIRYGREVEL [L5K]', 3.61),
  ('ELDELLKEISRKRTSIRYGREVEL [R14T]', 2.38),
  ('EIDELLKEISRKRRSIRYGREVEL [L2I]', 2.6),
  ('ELDELLKEISHKRRSIRYGREVEL [R11H]', 2.45),
  ('ELDELLKEISRKRRSIRYGYEVEL [R20Y]', 1.89),
  ('ELDELLKEISRERRSIRYGREVEL [K12E]', 2.32),
  ('ELDELQKEISRKRRSIRYGREVEL [L6Q]', 3.73),
  ('ELDELLKEISRQRRSIRYGREVEL [K12Q]', 1.81),
  ('ELDELLGEISRKRRSIRYGREVEL [K7G]', 2.54),
  ('ELDELLKEISRKRRSIRYLREVEL [G19L]', 2.13),
  ('ELDEYLKEISRKRRSIRYGREVEL [L5Y]', 3.44),
  ('ELDENLKEISRKRRSIRYGREVEL [L5N]', 2.69),
  ('ELDELLKEISRKRRSIRYGREVQL [E23Q]', 2.25),
  ('ELDELLKEISRKRRSIRYGAEVEL [R20A]', 2.85),
  ('ELDELLKEISRKRRSIRYGREVEE [L24E]', 2.77),
  ('ELDELLKEISRKRRSIRYGREVSL [E23S]', 2.47),
  ('ELDELLKEISRKRCSIRYGREVEL [R14C]', 2.19),
  ('ELDELLKEISRKRRSIRYGREQEL [V22Q]', 2.5),
  ('ELDELLKEISRKRRSIRYRREVEL [G19R]', 1.96),
  ('ELDELLKEISRKRRSIRYGRQVEL [E21Q]', 2.13);
